Measured values drawn from ChEMBL document CHEMBL1255303 for this set.

Tested on: Aspergillus fumigatus
METHOD NOTES: Antifungal activity against Aspergillus fumigatus IFM 46895 after 48 hrs by broth microdilution method
Format: functional
TEST PARAMETERS: IFM 46895, 48 h
Starred links: 1 amine or outer side, 2 acyl side, 3 side chain; linkers in the order of their positions; H or OH if unused. Positions of bridges follow the written chain, without caps; N, C: chain ends. Non-standard residues stand in square brackets, D forms with d. Residues, ends and D or L forms follow the SMILES beside them. *: point of attachment. hTyr(3S-OH,4S-OH,3'-OSO3H) = N[C@H](C(=O)O)[C@H](O)[C@@H](O)c1ccc(O)c(OS(=O)(=O)O)c1; Orn(4R-OH,5R-OH) = O=C([C@H](C[C@@H](O)[C@@H](O)N[*:3])N[*:1])[*:2]; Pro(3S-OH,4S-Me) = C[C@H]1CN[C@H](C(=O)O)[C@H]1O; X1 = CCCCCOc1ccc(-c2cc(-c3ccc(C(=O)*)cc3)no2)cc1; Gln(3R-OH) = NC(=O)C[C@@H](O)[C@H](N)C(=O)O; Hyp = O=C(O)[C@@H]1C[C@@H](O)CN1
OBSERVED PROPERTY: MFC

Reference set, count: 2
| MOLECULE | MFC |
| --- | --- |
| N=C(N)c1ccc(OCCCC2CCN(CCCOc3ccc(C(=N)N)cc3)CC2)cc1 | > 64 µg/mL |
| OC(Cn1cncn1)(Cn1cncn1)c1ccc(F)cc1F | > 64 µg/mL |

get_value(item= CCCCCOc1ccc(-c2cc(-c3ccc(C(=O)N[C@H]4C[C@@H](O)[C@@H](O)NC(=O)[C@@H]5[C@@H](O)[C@@H](C)CN5C(=O)[C@H]([C@H](O)CC(N)=O)NC(=O)[C@H]([C@H](O)[C@@H](O)c5ccc(O)c(OS(=O)(=O)O)c5)NC(=O)[C@@H]5C[C@@H](O)CN5C(=O)[C@H]([C@@H](C)O)NC4=O)cc3)no2)cc1 [MICAFUNGIN] (X1-[Orn(4R-OH,5R-OH)]T[Hyp][hTyr(3S-OH,4S-OH,3'-OSO3H)][Gln(3R-OH)][Pro(3S-OH,4S-Me)]; lactam 1-C) , readout=MFC) returns > 64 µg/mL

###

Tested on: Fusarium solani
METHOD NOTES: Antifungal activity against Fusarium solani IFO 31093 after 48 hrs by broth microdilution method
Type: functional
TEST PARAMETERS: IFO 31093, 48 h
Starred links: 1 amine or outer side, 2 acyl side, 3 side chain; linkers in the order of their positions; H or OH if unused. Positions of bridges follow the written chain, without caps; N, C: chain ends. Non-standard residues stand in square brackets, D forms with d. Residues, ends and D or L forms follow the SMILES beside them. *: point of attachment. hTyr(3S-OH,4S-OH,3'-OSO3H) = N[C@H](C(=O)O)[C@H](O)[C@@H](O)c1ccc(O)c(OS(=O)(=O)O)c1; Orn(4R-OH,5R-OH) = O=C([C@H](C[C@@H](O)[C@@H](O)N[*:3])N[*:1])[*:2]; Pro(3S-OH,4S-Me) = C[C@H]1CN[C@H](C(=O)O)[C@H]1O; X1 = CCCCCOc1ccc(-c2cc(-c3ccc(C(=O)*)cc3)no2)cc1; Gln(3R-OH) = NC(=O)C[C@@H](O)[C@H](N)C(=O)O; Hyp = O=C(O)[C@@H]1C[C@@H](O)CN1
OBSERVED PROPERTY: MFC

Reference set, count: 2
| COMPOUND | MFC |
| --- | --- |
| N=C(N)c1ccc(OCCCC2CCN(CCCOc3ccc(C(=N)N)cc3)CC2)cc1 | > 64 µg/mL |
| OC(Cn1cncn1)(Cn1cncn1)c1ccc(F)cc1F [FLUCONAZOLE] | > 64 µg/mL |

Switching to the query record.
get_value(item= CCCCCOc1ccc(-c2cc(-c3ccc(C(=O)N[C@H]4C[C@@H](O)[C@@H](O)NC(=O)[C@@H]5[C@@H](O)[C@@H](C)CN5C(=O)[C@H]([C@H](O)CC(N)=O)NC(=O)[C@H]([C@H](O)[C@@H](O)c5ccc(O)c(OS(=O)(=O)O)c5)NC(=O)[C@@H]5C[C@@H](O)CN5C(=O)[C@H]([C@@H](C)O)NC4=O)cc3)no2)cc1 [MICAFUNGIN] (X1-[Orn(4R-OH,5R-OH)]T[Hyp][hTyr(3S-OH,4S-OH,3'-OSO3H)][Gln(3R-OH)][Pro(3S-OH,4S-Me)]; lactam 1-C) , readout=MFC) returns > 64 µg/mL

###

Would you mind telling me the reported MFC of each entry?
System: Candida tropicalis
METHOD NOTES: Antifungal activity against Candida tropicalis IFO 1400 after 48 hrs by broth microdilution method
Type: functional
TEST PARAMETERS: IFO 1400, 48 h
Starred links: 1 amine or outer side, 2 acyl side, 3 side chain; linkers in the order of their positions; H or OH if unused. Positions of bridges follow the written chain, without caps; N, C: chain ends. Non-standard residues stand in square brackets, D forms with d. Residues, ends and D or L forms follow the SMILES beside them. *: point of attachment. hTyr(3S-OH,4S-OH,3'-OSO3H) = N[C@H](C(=O)O)[C@H](O)[C@@H](O)c1ccc(O)c(OS(=O)(=O)O)c1; Orn(4R-OH,5R-OH) = O=C([C@H](C[C@@H](O)[C@@H](O)N[*:3])N[*:1])[*:2]; Pro(3S-OH,4S-Me) = C[C@H]1CN[C@H](C(=O)O)[C@H]1O; X1 = CCCCCOc1ccc(-c2cc(-c3ccc(C(=O)*)cc3)no2)cc1; Gln(3R-OH) = NC(=O)C[C@@H](O)[C@H](N)C(=O)O; Hyp = O=C(O)[C@@H]1C[C@@H](O)CN1

Reference set, count: 2
| COMPOUND | STUDY TARGET | MFC |
| --- | --- | --- |
| CCCCCOc1ccc(-c2cc(-c3ccc(C(=O)N[C@H]4C[C@@H](O)[C@@H](O)NC(=O)[C@@H]5[C@@H](O)[C@@H](C)CN5C(=O)[C@H]([C@H](O)CC(N)=O)NC(=O)[C@H]([C@H](O)[C@@H](O)c5ccc(O)c(OS(=O)(=O)O)c5)NC(=O)[C@@H]5C[C@@H](O)CN5C(=O)[C@H]([C@@H](C)O)NC4=O)cc3)no2)cc1 [MICAFUNGIN] (X1-[Orn(4R-OH,5R-OH)]T[Hyp][hTyr(3S-OH,4S-OH,3'-OSO3H)][Gln(3R-OH)][Pro(3S-OH,4S-Me)]; lactam 1-C) | Candida tropicalis | > 64 µg/mL |
| OC(Cn1cncn1)(Cn1cncn1)c1ccc(F)cc1F | Candida tropicalis | > 64 µg/mL |

Switching to the query record.
get_value(item= C[C@@H](c1ncncc1F)[C@](O)(Cn1cncn1)c1ccc(F)cc1F , readout=MFC) returns > 64 µg/mL

###

Tested on: Cryptococcus neoformans
METHOD NOTES: Antifungal activity against Cryptococcus neoformans ATCC 90113 after 72 hrs by broth microdilution method
Format: functional
TEST PARAMETERS: ATCC 90113, 72 h
Starred links: 1 amine or outer side, 2 acyl side, 3 side chain; linkers in the order of their positions; H or OH if unused. Positions of bridges follow the written chain, without caps; N, C: chain ends. Non-standard residues stand in square brackets, D forms with d. Residues, ends and D or L forms follow the SMILES beside them. *: point of attachment. hTyr(3S-OH,4S-OH,3'-OSO3H) = N[C@H](C(=O)O)[C@H](O)[C@@H](O)c1ccc(O)c(OS(=O)(=O)O)c1; Orn(4R-OH,5R-OH) = O=C([C@H](C[C@@H](O)[C@@H](O)N[*:3])N[*:1])[*:2]; Pro(3S-OH,4S-Me) = C[C@H]1CN[C@H](C(=O)O)[C@H]1O; X1 = CCCCCOc1ccc(-c2cc(-c3ccc(C(=O)*)cc3)no2)cc1; Gln(3R-OH) = NC(=O)C[C@@H](O)[C@H](N)C(=O)O; Hyp = O=C(O)[C@@H]1C[C@@H](O)CN1
OBSERVED PROPERTY: MFC

Reference set, count: 2
| COMPOUND | RESULT |
| --- | --- |
| OC(Cn1cncn1)(Cn1cncn1)c1ccc(F)cc1F [FLUCONAZOLE] | > 64 µg/mL |
| C[C@@H](c1ncncc1F)[C@](O)(Cn1cncn1)c1ccc(F)cc1F [VORICONAZOLE] | > 64 µg/mL |

get_value(item= CCCCCOc1ccc(-c2cc(-c3ccc(C(=O)N[C@H]4C[C@@H](O)[C@@H](O)NC(=O)[C@@H]5[C@@H](O)[C@@H](C)CN5C(=O)[C@H]([C@H](O)CC(N)=O)NC(=O)[C@H]([C@H](O)[C@@H](O)c5ccc(O)c(OS(=O)(=O)O)c5)NC(=O)[C@@H]5C[C@@H](O)CN5C(=O)[C@H]([C@@H](C)O)NC4=O)cc3)no2)cc1 [MICAFUNGIN] (X1-[Orn(4R-OH,5R-OH)]T[Hyp][hTyr(3S-OH,4S-OH,3'-OSO3H)][Gln(3R-OH)][Pro(3S-OH,4S-Me)]; lactam 1-C) , readout=MFC) returns > 64 µg/mL
